- experiment_summary: Biodistribution of radiotracers in normal mice
- Type: in vivo, mouse
- condition_summary: normal male mice, 120 min
observable: Biodistribution: Liver

compound	observable	measurement
O=C(O)CCc1ccc2c(n1)C[N+]13CC[N+]45CC(=O)[O][68Ga-3]14([O]C(=O)C3)([O]2)[O]c1ccc(CCC(=O)NCCCCCC(=O)NCCCC[C@H](NC(=O)N[C@@H](CCC(=O)O)C(=O)O)C(=O)O)nc1C5 (some centres unmarked) [[^68Ga]2]	Biodistribution: Liver	0.22 ± 0.01 % dose/g

Request: // Biodistribution: Liver lookup, key: O=C(O)CCc1ccc2c(c1)C[N+]13CC[N+]45CC(=O)[O][68Ga-3]14([O]C(=O)C3)([O]2)[O]c1ccc(CCC(=O)NCCCCCC(=O)NCCCC[C@H](NC(=O)N[C@@H](CCC(=O)O)C(=O)O)C(=O)O)cc1C5 (some centres unmarked) [[^68Ga]1a, reference compound]
Response: 2.56 ± 0.80 % dose/g

Sourced from patent US10688200B2
